- Tested on: CCRF-CEM
- Assay Explanation: Cytotoxicity against human CCRF-CEM cells assessed as cell viability at 100 uM incubated for 72 hrs by CellTiter-Glo luminescence based assay
- Format: functional
- Condition Notes: read-out: Activity
viability at 100 µM strictly under 80% means Met; at 80% or over means Not met.

- CN(C)/C=N/c1nc(OC[C@H](O)COC(c2ccccc2)(c2ccccc2)c2ccccc2)ns1: Met
- O=C(Nc1nc(=O)n(C[C@@H](CO)OCP(=O)(O)O)s1)c1ccccc1: Met
- O=C(Nc1nc(=O)n(CCOCP(=O)(O)O)s1)OCC1c2ccccc2-c2ccccc21: Not met
- CCOC(=O)Nc1nc(=O)n(CCOCP(=O)(OC(C)C)OC(C)C)s1: Not met
- Nc1nc(=O)[nH]s1: Met
- CC(C)OP(=O)(CO[C@H](CO)Cn1sc(NC(=O)c2ccccc2)nc1=O)OC(C)C: Not met
- CCOC(=O)Nc1nc(=O)n(CCOCP(=O)(O)O)s1: Met
- O=C(Nc1nc(=O)n(C[C@@H](CO)OCP(=O)(O)O)s1)OCC1c2ccccc2-c2ccccc21: Not met
- CC(=O)Nc1nc(=O)[nH]s1: Not met
- CN(C)/C=N/c1nc(=O)[nH]s1: Not met
- O=C(/N=c1\s[nH]c(=O)n1C[C@H](O)COC(c1ccccc1)(c1ccccc1)c1ccccc1)c1ccccc1: Met
- Nc1nc(OCCOCP(=O)(O)O)ns1: Not met
- CC(C)OP(=O)(COCCOc1nsc(N)n1)OC(C)C: Not met
- CCOC(=O)Nc1nc(=O)n(C[C@@H](CO)OCP(=O)(O)O)s1: Not met
- CCOC(=O)Nc1nc(=O)n(C[C@@H](CO)OCP(=O)(OC(C)C)OC(C)C)s1: Met
- CC(C)OP(=O)(COCCn1sc(NC(=O)c2ccccc2)nc1=O)OC(C)C: Not met
- O=C(Nc1nc(=O)[nH]s1)c1ccccc1: Not met
- CC(C)OP(=O)(COCCOc1nsc(/N=C/N(C)C)n1)OC(C)C: Not met
- O=C(Nc1nc(=O)n(CCOCP(=O)(O)O)s1)c1ccccc1: Not met
- CN(C)/C=N/c1nc(=O)n(C[C@H](O)COC(c2ccccc2)(c2ccccc2)c2ccccc2)s1: Met
